experiment: Selectivity index, ratio of IC50 for rat L6 cells to IC50 for Trypanosoma brucei Lister 427; type: toxicity, cell-based; details: L6 cells (versus Trypanosoma brucei Lister 427), read-out: Ratio IC50
Reported selectivity ratio values are given for each entry in this list.
Give a plain numeric answer without units written out.

Solved entries:
- CN1C(N)=NCC1C12CC3CC(CC(C4CCCCC4)(C3)C1)C2 (stereo unspecified): 4.3
- CN1C=NCC1C12CC3CC(CC(C4CCCC4)(C3)C1)C2 (stereo unspecified): 3.9
- NC1=NCC(C23CC4CC(CC(C5CCCC5)(C4)C2)C3)N1 (stereo unspecified): 7.9
- CC1=NCC(C23CC4CC(CC(C5CCCC5)(C4)C2)C3)N1C (stereo unspecified): 1.3
- C1=NCC(C23CC4CC(CC(C5CCCCC5)(C4)C2)C3)N1 (stereo unspecified): 2.5
- CC1=NCC(C23CC4CC(CC(C5CCCC5)(C4)C2)C3)N1 (stereo unspecified): 1.6

// query Supply reported selectivity ratio belonging to this compound: NC1=NCC(C23CC4CC(CC(C5CCCC5)(C4)C2)C3)N1C1CCCCC1 (stereo unspecified)
// result 5

// query Supply reported selectivity ratio belonging to this compound: C1=NCC(C23CC4CC(CC(C5CCCC5)(C4)C2)C3)N1 (stereo unspecified)
// result 2.4

// query Supply reported selectivity ratio belonging to this compound: NC1=NCC(C23CC4CC(CC(C5CCCCC5)(C4)C2)C3)N1 (stereo unspecified)
// result 10.2

// query Supply reported selectivity ratio belonging to this compound: C1=NCC(C23CC4CC(CC(C5CCCC5)(C4)C2)C3)N1C1CCCCC1 (stereo unspecified)
// result 1.9

// query Supply reported selectivity ratio belonging to this compound: CN1C(N)=NCC1C12CC3CC(CC(C4CCCC4)(C3)C1)C2 (stereo unspecified)
// result 7.1
